# subject-of-test: T1, human IL-36α(R12), truncated (human, UniProt Q9UHA7 6-158)
# T1 construct: Untagged after removal of the His-SUMO tag; also called hIL-36alpha
# T1 chain: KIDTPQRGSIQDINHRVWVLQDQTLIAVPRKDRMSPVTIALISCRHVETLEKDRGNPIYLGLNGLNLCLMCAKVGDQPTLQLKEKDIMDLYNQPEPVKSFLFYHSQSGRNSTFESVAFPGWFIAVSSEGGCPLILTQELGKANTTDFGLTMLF
# measurement-description: SPR, Biacore, 1:1 Langmuir fit; heads of c3 and c4 printed swapped

# binder, kon
rows = [
    ("144D464A LV11re HV10b (antibody, V domains shown, Humanized) VH: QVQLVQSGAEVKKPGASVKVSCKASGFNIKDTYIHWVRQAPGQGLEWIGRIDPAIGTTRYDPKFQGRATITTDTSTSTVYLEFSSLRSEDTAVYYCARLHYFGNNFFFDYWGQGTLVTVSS VL: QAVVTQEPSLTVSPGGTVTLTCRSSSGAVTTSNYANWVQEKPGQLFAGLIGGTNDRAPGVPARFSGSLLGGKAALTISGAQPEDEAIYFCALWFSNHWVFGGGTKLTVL", "226000 M⁻¹ s⁻¹"),
]
